measurement notes: calcein-AM signal in unstimulated myeloma cells – cell-based, calcein-AM fluorescence, 48 h, PK04 Diversity Set, profiling panel (AID 1166);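 also: cells grown under basal conditions without added stimulus; test concentration not given here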
run conditions: RPMI8226 myeloma viability, higher = more signal
parameter measured: z-score

// sample C=C[C@H](C)[C@H](OC(=O)Nc1ccc(SC)cc1)c1ccc(O)c2ccccc12 , its z-score was -3.78

// sample C=CCC(OC(C)=O)[C@@H]1[C@@H](N(Cc2ccc(-c3ccccc3)cc2)C(=O)c2cccc3ccccc23)c2cc(OCCCO)ccc2N1C(=O)c1ccc2ccccc2n1 (some centres undefined) , its z-score was 0.116

// sample CC(C)C[C@@H]1NC(=O)[C@@]23C(=O)N[C@@H](Cc4ccccc4)C2[C@H](C)[C@@]2(C)O[C@H]2C3/C=C/C/C=C\CNC(=O)[C@@H]2CCCN2C1=O (some centres undefined) , its z-score was 0.219

// sample CCCCCCCCCCC(O)C1C=CC2C(=O)NC(=O)C2N1Nc1ccccn1 (centres undefined) , its z-score was -4.13

----------
system under test: Epidermal growth factor receptor (Homo sapiens) (UniProt P00533)
Sequence (P00533 whole entry, looked up): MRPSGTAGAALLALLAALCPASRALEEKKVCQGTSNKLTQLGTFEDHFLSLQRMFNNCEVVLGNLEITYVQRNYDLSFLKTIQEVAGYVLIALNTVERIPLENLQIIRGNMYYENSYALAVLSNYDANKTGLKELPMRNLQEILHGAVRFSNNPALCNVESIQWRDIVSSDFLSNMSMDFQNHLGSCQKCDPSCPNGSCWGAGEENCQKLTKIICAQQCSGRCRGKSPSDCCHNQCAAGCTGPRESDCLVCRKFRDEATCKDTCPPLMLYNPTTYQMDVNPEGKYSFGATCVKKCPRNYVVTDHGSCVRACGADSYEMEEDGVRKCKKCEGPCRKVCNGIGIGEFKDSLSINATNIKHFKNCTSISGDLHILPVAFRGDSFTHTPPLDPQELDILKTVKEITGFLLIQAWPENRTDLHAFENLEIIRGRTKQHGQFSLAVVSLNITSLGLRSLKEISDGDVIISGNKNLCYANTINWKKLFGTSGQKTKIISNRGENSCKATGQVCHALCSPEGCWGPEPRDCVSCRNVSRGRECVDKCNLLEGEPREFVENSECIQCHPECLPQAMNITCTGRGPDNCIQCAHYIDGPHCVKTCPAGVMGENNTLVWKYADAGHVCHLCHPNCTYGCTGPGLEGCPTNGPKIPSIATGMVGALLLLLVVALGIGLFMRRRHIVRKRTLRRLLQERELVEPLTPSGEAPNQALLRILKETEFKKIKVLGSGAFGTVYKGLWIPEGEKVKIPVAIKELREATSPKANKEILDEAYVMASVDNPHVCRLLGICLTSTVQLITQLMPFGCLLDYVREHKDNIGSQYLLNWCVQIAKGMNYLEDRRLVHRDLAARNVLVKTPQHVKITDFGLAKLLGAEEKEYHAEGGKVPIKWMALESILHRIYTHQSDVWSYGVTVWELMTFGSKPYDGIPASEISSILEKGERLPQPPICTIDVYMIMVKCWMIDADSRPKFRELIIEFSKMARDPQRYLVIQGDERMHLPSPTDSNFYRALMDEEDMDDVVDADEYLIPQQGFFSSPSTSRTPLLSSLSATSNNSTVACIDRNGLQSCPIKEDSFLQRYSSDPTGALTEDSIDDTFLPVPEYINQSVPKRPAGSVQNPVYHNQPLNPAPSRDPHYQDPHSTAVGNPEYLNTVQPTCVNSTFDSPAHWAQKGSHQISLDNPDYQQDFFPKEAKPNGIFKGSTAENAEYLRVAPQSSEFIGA
measurement notes: compounds binding epidermal growth factor receptor – biochemical, small-molecule microarray, 635 nm fluorescence, primary screen (AID 1104);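 also: score merges 667 nm emission intensity with spot signal to noise over triplicate slides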
run conditions: EGFR binding, higher = more signal
Kind request: treat -0.03 as inclusive, so composite z-score at -0.03 or higher is class 1, anything lower is class 0.

Please indicate if the recorded composite z-score for CCOC(=O)C1=CC[C@@H](c2cccc(Br)c2)N(S(=O)(=O)c2ccc(C)cc2)[C@H]1c1ccc([N+](=O)[O-])cc1 meets or exceeds -0.03. class 1

Please indicate if the recorded composite z-score for C=CCOC(=O)[C@@H]1[C@H]2C(=O)O[C@H](c3ccccc3)[C@H](c3ccccc3)N2[C@H](c2ccc(OCCOC(=O)[C@@H]3C[C@@H]4C(=O)N[C@@H](CCCCNC(C)=O)C(=O)N4[C@@H]3c3ccc(O)cc3)cc2)[C@@]12C(=O)Nc1ccc(I)cc12 meets or exceeds -0.03. class 1

Please indicate if the recorded composite z-score for CCC[C@@H]1C[C@@]1(CCC)[C@@H](NC(=O)c1cccs1)c1ccc(Cl)cc1 meets or exceeds -0.03. class 0

Please indicate if the recorded composite z-score for CC(C)(C)OC(=O)CC[C@@]1(C(=O)N2CCCCC2)N=C(c2ccc(OCCCO)cc2)O[C@@H]1c1ccccc1CN=[N+]=[N-] meets or exceeds -0.03. class 1

Please indicate if the recorded composite z-score for CN(C)CCCN1C(=O)[C@@]2(Cc3ccccc31)c1ccccc1C(=O)N(Cc1ccccc1)[C@H]2c1ccc(CO)cc1 meets or exceeds -0.03. class 0

Please indicate if the recorded composite z-score for C=C(COC)/C(=C/C[C@@H](OC(=O)c1ccncc1)c1cccc(OCCO)c1)c1cc(C(=O)OC)ccc1OC meets or exceeds -0.03. class 1

Please indicate if the recorded composite z-score for O=C1C2C=CC(C(O)c3ccc(Br)cc3)N(Nc3ccccc3)C2C(=O)N1c1ccccc1 (stereo not given) meets or exceeds -0.03. class 1

Please indicate if the recorded composite z-score for O=C1C[C@@](C(=O)NCc2ccccc2)(c2ccc([N+](=O)[O-])cc2)[C@@H](c2ccc(CO)cc2I)N1C1CCCCC1 meets or exceeds -0.03. class 1

Please indicate if the recorded composite z-score for CN1C(=O)C2C=CC(C(O)c3cccc4ccccc34)N(NC(=O)OC(C)(C)C)C2C1=O (stereo not given) meets or exceeds -0.03. class 0

Please indicate if the recorded composite z-score for C[N+](C)(C)CCCCNC(=O)[C@H]1C[C@H]2C(=O)NCC(=O)N2[C@H]1c1ccc(O)cc1 meets or exceeds -0.03. class 1

Please indicate if the recorded composite z-score for COCCCNC(=O)[C@@]1(Cc2ccccc2I)c2ccccc2C(=O)N(Cc2ccccc2Cl)[C@H]1c1ccc(CO)cc1 meets or exceeds -0.03. class 0

Please indicate if the recorded composite z-score for C[N+](C)(C)CCCC[C@@H]1NC(=O)[C@@H]2C[C@H](C(=O)NCCCCCNC(=O)CS)[C@H](c3cccc(OCCO)c3)N2C1=O meets or exceeds -0.03. class 1

Please indicate if the recorded composite z-score for COc1ccccc1CN1C(=O)c2ccccc2[C@@H](C(=O)NCC(C)C)[C@@H]1c1ccc(CO)cc1 meets or exceeds -0.03. class 0

Please indicate if the recorded composite z-score for CCCN1C(=O)[C@@]2(Cc3ccccc3)N=C(c3ccc(OCCCO)cc3)O[C@H]2c2ccccc21 meets or exceeds -0.03. class 1

Please indicate if the recorded composite z-score for COC(=O)[C@]1(Cc2ccccc2CN=[N+]=[N-])N=C(c2ccc(OCCCO)cc2)O[C@@H]1c1ccccc1CN=[N+]=[N-] meets or exceeds -0.03. class 0

----------
Test system: Sam68 (KHDRBS1)
measurement notes: compounds binding KHDRBS1 protein – biochemical, small-molecule microarray, 635 nm fluorescence, primary screen (AID 1125);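 also: score merges 667 nm channel intensity with signal to noise over triplicate slides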
run conditions: higher = more signal
For each of the compounds below, state its composite z-score.
Number only, no unit.

// sample NCCCCCCNC(=O)[C@H]1C[C@H]2C(=O)N3CCC[C@H]3C(=O)N2[C@H]1c1ccc(O)cc1 , its composite z-score was 0.644

// sample COc1cccc(C[C@H]2C[C@@H](CO[Si](C(C)C)(C(C)C)C(C)C)N3C(=O)[C@]4(C(C)=O)O[C@]23[C@H]2C(=O)N(C)C(=O)[C@H]24)c1 , its composite z-score was 1.14

// sample COc1ccc([Si](C)(C)[C@@H]2[C@@H](CCO)O[C@]3(C(=O)N(Cc4ccccc4)c4ccc(N5C(=O)COc6ccccc65)cc43)[C@H]2C)cc1 , its composite z-score was 0.929

----------
For each of the compounds below, state its z-score.
measurement notes: plasmodial surface anion channel blockers, osmotic lysis – cell-based, P. falciparum Indochina, OD700, 18 h, primary screen (AID 1157)
run conditions: P. falciparum Indochina infected erythrocytes, osmotic lysis OD700, 18 h; higher = more signal, called active from +8 up or from −8 down
Number only, no unit.

// sample CC(C)c1ccc(NN2C(C(O)c3ccccn3)C=CC3C(=O)N(c4ccccc4)C(=O)C32)cc1 (stereo not given) , its z-score was 1.64

// sample C=CC[C@]1(C(=O)N(C)C)N=C(c2ccc(OCCCO)cc2)O[C@H]1c1ccccc1 , its z-score was 1.46

// sample NCCCCCCNC(=O)[C@H]1C[C@H]2C(=O)N3CCC[C@H]3C(=O)N2[C@H]1c1ccc(O)cc1 , its z-score was 0.253

// sample COCCCNC(=O)[C@@]1(Cc2ccccc2N=[N+]=[N-])N=C(c2ccc(OCCCO)cc2)O[C@H]1c1ccccc1CN=[N+]=[N-] , its z-score was 0.74

// sample COc1ccc(CCNC(=O)[C@@H]2c3ccccc3C(=O)N(Cc3ccccc3C(F)(F)F)[C@H]2c2ccc(CO)cc2)cc1 , its z-score was 0.694

----------
measurement notes: JC-1 mitochondrial signal, unstimulated HepG2 cells – cell-based, JC-1 fluorescence, 24 h, 100 nL compound, profiling panel (AID 1167); also: test concentration not given here
run conditions: HepG2 mitochondrial potential, higher = more signal
For each of the compounds below, state its z-score.

// sample COc1cc(C(O)C2C=CC3C(=O)NC(=O)C3N2Nc2ccc(Cl)cc2Cl)cc(OC)c1OC (configuration not stated) , its z-score was -0.359

// sample CCCC=C(CCC)[C@@H](NS(=O)(=O)c1cccc2cccnc12)c1ccc(C(=O)OC)cc1 , its z-score was -1.52

// sample COc1ccc([Si](C)(C)[C@@H]2[C@@H](CC(=O)N(CCO)Cc3ccccc3)O[C@]3(C(=O)N(Cc4ccc(N5CCOC5=O)cc4)c4ccccc43)[C@H]2C)cc1 , its z-score was -0.0678

// sample CN(C)CCCCCCNC(=O)[C@@H]1C[C@@H]2C(=O)NCC(=O)N2[C@@H]1c1ccc(O)cc1 , its z-score was -1.16

// sample C[N+](C)(C)CCCC[C@@H]1NC(=O)[C@H]2C[C@@H](C(=O)NCCCCCCN)[C@@H](c3cccc(OCCO)c3)N2C1=O , its z-score was -1.01

// sample C=CC[C@]1(C(=O)N2CCOCC2)N=C(c2ccc(OCCCO)cc2)O[C@H]1c1ccccc1CN=[N+]=[N-] , its z-score was 1.48

// sample CC(C)(C)N1CC=CC23O[C@@H]4C=CCCOC(=O)C4[C@H]2C(=O)N(CCCO)[C@@H]3C1=O (some centres not stated) , its z-score was -1.26

----------
measurement notes: basal CRE-LacZ reporter activity in PC12 – cell-based, unstimulated, primary screen (AID 1145)
run conditions: no forskolin, luminescence, 4.5 h, higher = more signal, called active from +8 up or from −8 down
Heads up, the class ranges for z-score are 1: < 0.05; 2: ≥ 0.05 and < 0.9; 3: ≥ 0.9

Which class is correct for the following compound? CC(C)NC(=O)[C@@]1(Cc2ccccc2I)c2ccccc2C(=O)N(Cc2ccccc2C(F)(F)F)[C@H]1c1ccc(CO)cc1 2

Which class is correct for the following compound? COCCOC(=O)N1C(=O)[C@@]2(c3cc(C#Cc4ccc(OC)cc4)ccc31)[C@H](C(=O)N1CCc3cc(OC)c(OC)cc3C1)[C@H]1C(=O)O[C@H](c3ccccc3)[C@H](c3ccccc3)N1[C@@H]2c1ccc(O)cc1 1

Which class is correct for the following compound? [N-]=[N+]=NCc1ccccc1C[C@@]1(C(=O)NCCN2CCOCC2)N=C(c2ccc(OCCCO)cc2)O[C@@H]1c1ccccc1CN=[N+]=[N-] 1

Which class is correct for the following compound? OCCCC1=CC(c2cccs2)N(Cc2cccc(OC(F)(F)F)c2)CC1 (stereo not given) 2

Which class is correct for the following compound? COC(=O)[C@@]1(Cc2ccccc2)[C@H]2c3cc(C(=O)N4CCCC4)n(Cc4ccc(OC(F)(F)F)cc4)c3C[C@H]2CN1C(=O)c1ccccc1 3

Which class is correct for the following compound? COCCOC(=O)N1C(=O)[C@@]2(c3ccccc31)[C@H](c1ccccc1OCCO)N1[C@H](c3ccccc3)[C@H](c3ccccc3)OC(=O)[C@H]1[C@@H]2C(=O)N1CCc2cc(OC)c(OC)cc2C1 2

Which class is correct for the following compound? C=C(COC)C(=O)CC[C@H](OC(=O)c1ccccc1-c1ccccc1C(=O)O)c1ccc(OCCO)cc1 3

Which class is correct for the following compound? COC(=O)[C@@]1(Cc2ccc(OC)cc2)[C@H]2c3cc(C(=O)N4CCCC4)n(CCF)c3C[C@H]2CN1C(=O)c1ccccc1 3

Which class is correct for the following compound? CN1C(=O)C2C=CC(C(O)C3CCCCC3)N(N(c3ccccc3)c3ccccc3)C2C1=O (stereo not given) 1
